# target-of-assay: human PDE4B1 (Homo sapiens)
# Construct: host or cells: Sf9 cells
# Sequence (Q07343 whole entry): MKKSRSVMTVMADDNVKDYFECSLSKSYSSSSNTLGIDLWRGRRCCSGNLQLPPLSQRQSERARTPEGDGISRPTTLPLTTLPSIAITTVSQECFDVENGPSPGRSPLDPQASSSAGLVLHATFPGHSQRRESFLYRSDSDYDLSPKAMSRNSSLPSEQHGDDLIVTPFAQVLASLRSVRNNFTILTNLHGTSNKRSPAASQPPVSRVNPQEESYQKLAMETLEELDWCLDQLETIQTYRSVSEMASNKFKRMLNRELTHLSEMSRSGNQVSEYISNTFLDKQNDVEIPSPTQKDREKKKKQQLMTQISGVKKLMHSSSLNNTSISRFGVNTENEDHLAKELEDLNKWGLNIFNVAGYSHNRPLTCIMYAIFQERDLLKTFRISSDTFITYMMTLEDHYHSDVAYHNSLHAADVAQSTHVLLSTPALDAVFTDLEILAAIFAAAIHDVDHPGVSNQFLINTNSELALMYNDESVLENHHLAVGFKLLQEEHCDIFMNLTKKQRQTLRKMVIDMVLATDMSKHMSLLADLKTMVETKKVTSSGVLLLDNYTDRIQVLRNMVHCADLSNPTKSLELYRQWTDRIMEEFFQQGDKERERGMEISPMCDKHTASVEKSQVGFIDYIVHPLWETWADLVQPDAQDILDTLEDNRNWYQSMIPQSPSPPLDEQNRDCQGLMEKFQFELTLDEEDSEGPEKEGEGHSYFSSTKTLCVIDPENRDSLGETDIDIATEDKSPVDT
# protocol-summary: TR-FRET assay using the LANCE Ultra cAMP kit to determine the activity of hPDE4B1
# Format: biochemical
# condition-description: test substrate concentration of 10 μM, read-out: Inhibition of PDE4B, Inhibition in %
Measured inhibition at 10 µM values are reported for all entries that follow.
reported-metric: inhibition at 10 µM (%)

• CCc1ccc(F)c(-c2cnc(-n3nc(C(C)O)c4ccc(C(=O)N5CCOCC5)cc43)nc2)c1 (stereo not shown) = 77
• C[S+]([O-])c1ccc(F)c(-c2cnc(-n3nc(C4CC4)c4ccc(C(=O)N5CCOCC5)cc43)nc2)c1 (stereo not shown) = 106
• Cc1ccc(F)c(-c2cnc(-n3nc(C(C)O)c4ccc(C(=O)N5CCOCC5)cc43)nc2)c1 (stereo not shown) = 107
• CC(C)(O)c1ccc(F)c(-c2cnc(-n3nc(C4CC4)c4ccc(C(=O)N5CCOCC5)cc43)nc2)c1 = 107
